Listing: half-life at 1 µM of selected molecules
# test: Half life in human liver microsomes at 1 uM by LC/MS/MS analysis
# Assay type: ADME

>  <compoundStructure>
O=C(O)CCNc1nc(N2CCc3ccccc3CC2)cc(-n2cc3ccccc3n2)n1

>  <modifier>
=

>  <half-life at 1 µM, h>
4.28

$$$$
>  <compoundStructure>
O=C(O)CCNc1nc(-c2nccs2)cc(N2CCc3ccccc3CC2)n1

>  <modifier>
=

>  <half-life at 1 µM, h>
4.44

$$$$
>  <compoundStructure>
O=C(O)CCNc1nc(N2CCc3ccccc3CC2)cc(-n2cccn2)n1

>  <modifier>
>

>  <half-life at 1 µM, h>
11.6

$$$$
>  <compoundStructure>
O=C(O)CCNc1nc(N2CCc3ccccc3CC2)cc(-n2nccn2)n1

>  <modifier>
=

>  <half-life at 1 µM, h>
38.5

$$$$
>  <compoundStructure>
O=C(O)CCNc1nc(N2CCc3ccccc3CC2)cc(-n2ccnn2)n1

>  <modifier>
>

>  <half-life at 1 µM, h>
11.6

$$$$
>  <compoundStructure>
O=C(O)CCNc1cc(N2CCc3ccccc3CC2)nc(-c2ccccn2)n1

>  <modifier>
=

>  <half-life at 1 µM, h>
8.25

$$$$

Origin of the recorded values: ChEMBL document CHEMBL3751830
